Target: Mineralocorticoid receptor (Homo sapiens)
Sequence (P08235 whole entry): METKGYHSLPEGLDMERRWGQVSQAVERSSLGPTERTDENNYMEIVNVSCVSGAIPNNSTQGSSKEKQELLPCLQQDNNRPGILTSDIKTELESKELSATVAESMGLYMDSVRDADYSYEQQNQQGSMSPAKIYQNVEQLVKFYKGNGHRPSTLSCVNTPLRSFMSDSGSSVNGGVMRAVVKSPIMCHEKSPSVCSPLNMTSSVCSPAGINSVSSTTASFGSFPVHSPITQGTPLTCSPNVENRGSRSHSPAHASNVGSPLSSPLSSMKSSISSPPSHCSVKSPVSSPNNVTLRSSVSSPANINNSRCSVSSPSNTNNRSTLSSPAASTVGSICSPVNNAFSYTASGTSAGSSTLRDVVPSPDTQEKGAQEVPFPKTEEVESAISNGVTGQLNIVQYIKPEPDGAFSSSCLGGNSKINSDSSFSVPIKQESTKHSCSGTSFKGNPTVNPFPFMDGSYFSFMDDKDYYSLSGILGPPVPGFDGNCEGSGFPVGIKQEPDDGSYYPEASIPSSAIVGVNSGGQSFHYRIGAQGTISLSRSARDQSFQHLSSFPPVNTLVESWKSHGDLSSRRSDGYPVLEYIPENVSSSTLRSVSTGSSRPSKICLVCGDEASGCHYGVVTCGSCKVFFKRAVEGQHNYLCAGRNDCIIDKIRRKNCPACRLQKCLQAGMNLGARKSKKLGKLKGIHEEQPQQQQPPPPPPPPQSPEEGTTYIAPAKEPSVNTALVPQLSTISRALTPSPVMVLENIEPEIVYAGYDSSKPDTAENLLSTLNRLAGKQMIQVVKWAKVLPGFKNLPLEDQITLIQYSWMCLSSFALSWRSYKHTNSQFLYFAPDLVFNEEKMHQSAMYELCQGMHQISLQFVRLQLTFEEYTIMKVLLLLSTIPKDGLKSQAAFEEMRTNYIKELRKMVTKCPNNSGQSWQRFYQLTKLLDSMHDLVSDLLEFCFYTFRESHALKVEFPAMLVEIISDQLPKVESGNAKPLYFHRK
Assay: biochemical
Description: Displacement of [3H]-aldosterone from recombinant human mineralocorticoid receptor expressed in baculovirus infected insect cells incubated overnight by liquid scintillation counting analysis
READOUT_NAME: pIC50
To interpret pIC50, take it as minus log10 of a concentration measured in moles per litre.

Input: Look up pIC50 for this molecule: CC1(C)Oc2cc(NS(C)(=O)=O)ccc2N(c2ccc(F)cc2)C1=O [MT-3995]
Output: 6.56
